Values compiled from the supplement of paper PMC10126150.

# System: ATP;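 further: ATP exposure 15 min at 22 °C before imaging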
# protocol: switch fluorescence ratio, 500 uM ATP over buffer (Cy3 cluster intensity, sum of 5 cycles each) (fold (ratio)); higher = stronger signal-on switching upon ATP binding; sequences stand for … in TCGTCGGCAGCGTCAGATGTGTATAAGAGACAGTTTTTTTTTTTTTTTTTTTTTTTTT…TC
# reported_conditions: aptamer strand: ATP DNA aptamer (quencher-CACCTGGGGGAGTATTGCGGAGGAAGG + anchor), 100 nM annealed; ATP concentration: 500 uM
endpoint: switch fluorescence ratio
Give a plain numeric answer without units written out.

The following sequences have reported results that may help.
sequence	reported_result
GGGGGCGTTC	1.01
TGGAGAGGGA	0.98
GCTAAAACCT	2.25

Query sequence follows.
Entry "ACGAAAAGTG" : reported switch fluorescence ratio = ?
1.05

* * *

# System: ATP;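 further: ATP exposure 15 min at 22 °C before imaging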
# protocol: switch fluorescence ratio, 500 uM ATP over buffer (Cy3 cluster intensity, sum of 5 cycles each) (fold (ratio)); higher = stronger signal-on switching upon ATP binding; sequences stand for … in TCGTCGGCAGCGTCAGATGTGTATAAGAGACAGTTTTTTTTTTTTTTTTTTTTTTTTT…TC
# reported_conditions: aptamer strand: ATP DNA aptamer (quencher-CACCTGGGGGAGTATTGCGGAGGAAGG + anchor), 100 nM annealed; ATP concentration: 500 uM
endpoint: switch fluorescence ratio
Give a plain numeric answer without units written out.

The following sequences have reported results that may help.
sequence	subject_of_test	endpoint	reported_result
AAATGTTTTG	ATP	switch fluorescence ratio	1.03
ATTTAGGGTA	ATP	switch fluorescence ratio	0.986
TCAAAATGTG	ATP	switch fluorescence ratio	0.958
GAGGGTCGGG	ATP	switch fluorescence ratio	0.988
TTTACGTGGA	ATP	switch fluorescence ratio	1.02
GTGAGTTGCT	ATP	switch fluorescence ratio	1
TTTTAACGAA	ATP	switch fluorescence ratio	1.01
AATTGGAAAA	ATP	switch fluorescence ratio	0.987

For ATP, provide switch fluorescence ratio of "AGAAAGTTAA" please.
0.986

Now this one: "ACTCCGGGGA"
2.4

Now this one: "AATTGAAAAG"
0.982

Now this one: "TATTCCGTCC"
1.1

* * *

Entries and their switch fluorescence ratio
# Tested on: ATP;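 further: ATP exposure 15 min at 22 °C before imaging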
# protocol: switch fluorescence ratio, 500 uM ATP over buffer (Cy3 cluster intensity, sum of 5 cycles each) (fold (ratio)); higher = stronger signal-on switching upon ATP binding; sequences stand for … in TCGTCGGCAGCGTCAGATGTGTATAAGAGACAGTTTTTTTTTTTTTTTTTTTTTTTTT…TC
# reported_conditions: aptamer strand: ATP DNA aptamer (quencher-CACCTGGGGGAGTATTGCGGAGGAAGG + anchor), 100 nM annealed; ATP concentration: 500 uM
Give a plain numeric answer without units written out.

sequence	endpoint	reported_result
GCCTTAACGG	switch fluorescence ratio	1.01
ATTTTAACTT	switch fluorescence ratio	1.35
AGGTGTTGGG	switch fluorescence ratio	1.01
AGGGTGACAT	switch fluorescence ratio	0.999
AGTTCAAACC	switch fluorescence ratio	1.04

Query sequence follows.
Entry "AGTAATGAAA" : reported switch fluorescence ratio = ?
0.975

* * *

Entries and their switch fluorescence ratio
# Tested on: ATP;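 further: ATP exposure 15 min at 22 °C before imaging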
# protocol: switch fluorescence ratio, 500 uM ATP over buffer (Cy3 cluster intensity, sum of 5 cycles each) (fold (ratio)); higher = stronger signal-on switching upon ATP binding; sequences stand for … in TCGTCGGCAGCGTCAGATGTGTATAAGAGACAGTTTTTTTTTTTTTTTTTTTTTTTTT…TC
# reported_conditions: aptamer strand: ATP DNA aptamer (quencher-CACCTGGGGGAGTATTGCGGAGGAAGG + anchor), 100 nM annealed; ATP concentration: 500 uM
Give a plain numeric answer without units written out.

The following sequences have reported results that may help.
sequence	subject_of_test	reported_result
GGGGAGTCTT	ATP	0.972
TCACTGGGTA	ATP	0.995
AGAGTCGTCA	ATP	0.965
ATCAATTTCT	ATP	0.974
TAGATTGAAA	ATP	0.986
TCTCGGGGGG	ATP	1.02

Entry "GGAAAAATGA" : reported switch fluorescence ratio = ?
1

Now this one: "AAGGTACCGT"
1.05

Now this one: "TTTTGATCGT"
0.962

Now this one: "CTCGGGACTT"
0.988

Now this one: "ATAATAGAGT"
1.02

* * *

# System: ATP;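 further: ATP exposure 15 min at 22 °C before imaging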
# protocol: switch fluorescence ratio, 500 uM ATP over buffer (Cy3 cluster intensity, sum of 5 cycles each) (fold (ratio)); higher = stronger signal-on switching upon ATP binding; sequences stand for … in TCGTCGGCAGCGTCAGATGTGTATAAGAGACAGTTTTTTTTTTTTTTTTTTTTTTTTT…TC
# reported_conditions: aptamer strand: ATP DNA aptamer (quencher-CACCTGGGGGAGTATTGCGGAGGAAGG + anchor), 100 nM annealed; ATP concentration: 500 uM
Entries and their switch fluorescence ratio
Give a plain numeric answer without units written out.

The following sequences have reported results that may help.
sequence	subject_of_test	switch fluorescence ratio
GTTCGGCGGC	ATP	0.991
ATGAAGCAGG	ATP	1.15
ATCTAGTACC	ATP	0.999
AGGGTCTGCG	ATP	0.981
ACGACGGGGG	ATP	1.2
TCGGGGAGGA	ATP	0.956
AAATTAATCA	ATP	1.04
TTAATGCCGT	ATP	1.05

Entry "TTATGCTGGG" : reported switch fluorescence ratio = ?
0.974

Now this one: "GAGCAATATA"
5.13

Now this one: "ACATGGCTAA"
1.08

Now this one: "TTGGATGGAA"
0.984

Now this one: "GGATTATGGA"
0.971

Now this one: "CGTTCCGGGT"
1.02

Now this one: "TTTCTCGTAC"
1.11

* * *

# Test system: ATP;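 further: ATP exposure 15 min at 22 °C before imaging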
# protocol: switch fluorescence ratio, 500 uM ATP over buffer (Cy3 cluster intensity, sum of 5 cycles each) (fold (ratio)); higher = stronger signal-on switching upon ATP binding; sequences stand for … in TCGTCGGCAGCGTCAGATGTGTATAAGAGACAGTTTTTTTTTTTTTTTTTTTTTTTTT…TC
# reported_conditions: aptamer strand: ATP DNA aptamer (quencher-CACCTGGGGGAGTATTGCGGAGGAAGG + anchor), 100 nM annealed; ATP concentration: 500 uM
endpoint: switch fluorescence ratio
Give a plain numeric answer without units written out.

The following sequences have reported results that may help.
sequence	switch fluorescence ratio
TTTGATCGTT	1.01
AGGGCGTATT	0.974
AGAATTGTGG	0.973

Entry "GGGTGACAAT" : reported switch fluorescence ratio = ?
1

Now this one: "ATTCGGTTGT"
1

Now this one: "AAAAGCCGGG"
0.979

* * *

Entries and their switch fluorescence ratio
# Test system: ATP;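 further: ATP exposure 15 min at 22 °C before imaging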
# protocol: switch fluorescence ratio, 500 uM ATP over buffer (Cy3 cluster intensity, sum of 5 cycles each) (fold (ratio)); higher = stronger signal-on switching upon ATP binding; sequences stand for … in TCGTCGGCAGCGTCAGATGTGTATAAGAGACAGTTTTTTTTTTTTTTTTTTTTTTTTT…TC
# reported_conditions: aptamer strand: ATP DNA aptamer (quencher-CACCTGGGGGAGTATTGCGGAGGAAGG + anchor), 100 nM annealed; ATP concentration: 500 uM
Give a plain numeric answer without units written out.

sequence	subject_of_test	switch fluorescence ratio
GGGTTGGGAG	ATP	0.998

Query sequence follows.
Entry "AAACACAAGA" : reported switch fluorescence ratio = ?
1.13

* * *

# Test system: ATP;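 further: ATP exposure 15 min at 22 °C before imaging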
# protocol: switch fluorescence ratio, 500 uM ATP over buffer (Cy3 cluster intensity, sum of 5 cycles each) (fold (ratio)); higher = stronger signal-on switching upon ATP binding; sequences stand for … in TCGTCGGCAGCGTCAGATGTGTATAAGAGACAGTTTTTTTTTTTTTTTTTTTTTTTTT…TC
# reported_conditions: aptamer strand: ATP DNA aptamer (quencher-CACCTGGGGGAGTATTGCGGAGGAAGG + anchor), 100 nM annealed; ATP concentration: 500 uM
endpoint: switch fluorescence ratio
Give a plain numeric answer without units written out.

sequence	switch fluorescence ratio
GTTTGTGGGA	0.974
CGGGGTTATT	0.989
TCATTAATAG	0.996
ATGGGTGTCC	1

Query sequence follows.
Entry "GGCTCGTAGG" : reported switch fluorescence ratio = ?
1

* * *

# Tested on: ATP;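 further: ATP exposure 15 min at 22 °C before imaging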
# protocol: switch fluorescence ratio, 500 uM ATP over buffer (Cy3 cluster intensity, sum of 5 cycles each) (fold (ratio)); higher = stronger signal-on switching upon ATP binding; sequences stand for … in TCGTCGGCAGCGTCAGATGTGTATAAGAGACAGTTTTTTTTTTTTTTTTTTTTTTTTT…TC
# reported_conditions: aptamer strand: ATP DNA aptamer (quencher-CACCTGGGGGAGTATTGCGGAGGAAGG + anchor), 100 nM annealed; ATP concentration: 500 uM
endpoint: switch fluorescence ratio
Give a plain numeric answer without units written out.

The following sequences have reported results that may help.
sequence	subject_of_test	switch fluorescence ratio
TGATTCGAGC	ATP	1
GAGGTGAAGG	ATP	1.04
AGGGGTTTGA	ATP	1.01

Entry "TGTGTATGAG" : reported switch fluorescence ratio = ?
0.986

Now this one: "GGGGGTGTGG"
0.999
